Target: T1, Human Angiopoietin-2 full-length (hAng2) (human, UniProt O15123 19-496)
T1 construct: The cell assays used full-length hAng2 from R&D Systems; also called human Ang2; A2
T1 sequence: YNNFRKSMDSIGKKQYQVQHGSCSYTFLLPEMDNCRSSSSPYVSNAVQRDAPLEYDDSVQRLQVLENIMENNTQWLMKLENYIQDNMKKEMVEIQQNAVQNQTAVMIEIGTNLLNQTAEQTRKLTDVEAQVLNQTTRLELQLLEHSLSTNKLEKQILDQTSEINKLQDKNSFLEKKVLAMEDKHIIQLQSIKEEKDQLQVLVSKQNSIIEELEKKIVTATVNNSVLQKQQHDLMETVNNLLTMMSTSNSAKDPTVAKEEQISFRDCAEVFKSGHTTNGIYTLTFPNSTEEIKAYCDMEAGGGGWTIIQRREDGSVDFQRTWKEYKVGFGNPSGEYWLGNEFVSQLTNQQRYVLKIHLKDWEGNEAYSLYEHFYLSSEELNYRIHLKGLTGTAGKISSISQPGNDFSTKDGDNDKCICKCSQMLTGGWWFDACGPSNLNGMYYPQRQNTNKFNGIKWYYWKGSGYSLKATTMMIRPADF
Experiment: BLI (Octet), antibody fixed on AR2G sensor, hAng2 3.125-50 nM in solution, 1:1 global fit
pKd: −log10 of the molar value.
# cutoff 10 applies to pKd; >= gives Condition met, < gives Condition not met

# Binder, Answer Label
records = [
    ("humanized anti-Ang2 antibody 2C8H33 (antibody, V domains shown, Full-length human IgG1) VH: QVQLVQSGAEVKKPGASVKVSCKASGYSFTSYWMHWVRQAPGQGLEWIGMIDPSDSETRLNQKFKDKASMTRDTSTSTVYMELSSLRSEDTAVYYCARRFYYGSDWYFDVWGQGTLVTVSS VL: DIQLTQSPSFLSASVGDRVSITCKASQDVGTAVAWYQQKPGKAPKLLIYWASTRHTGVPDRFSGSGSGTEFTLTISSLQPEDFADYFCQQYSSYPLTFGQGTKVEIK", "Condition met"),
    ("2C8H11G4 (human IgG4 class antibody of 2C8H11) (antibody, V domains shown, The heavy chain constant region (CH1-hinge-CH2-CH3) was replaced by an IgG4 class constant region; also called 2C8H11-IgG4) VH: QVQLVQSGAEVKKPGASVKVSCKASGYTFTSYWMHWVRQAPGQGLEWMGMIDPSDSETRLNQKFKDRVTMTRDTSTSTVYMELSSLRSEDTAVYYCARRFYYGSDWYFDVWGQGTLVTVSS VL: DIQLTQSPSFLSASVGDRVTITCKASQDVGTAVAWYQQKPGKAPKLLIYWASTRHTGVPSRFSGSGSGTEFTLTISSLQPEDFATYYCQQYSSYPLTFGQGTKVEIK", "Condition met"),
    ("humanized anti-Ang2 antibody 2C8H23 (antibody, V domains shown, Full-length human IgG1) VH: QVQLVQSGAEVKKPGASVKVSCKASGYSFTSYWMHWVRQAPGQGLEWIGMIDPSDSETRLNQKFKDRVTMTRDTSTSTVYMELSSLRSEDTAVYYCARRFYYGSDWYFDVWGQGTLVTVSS VL: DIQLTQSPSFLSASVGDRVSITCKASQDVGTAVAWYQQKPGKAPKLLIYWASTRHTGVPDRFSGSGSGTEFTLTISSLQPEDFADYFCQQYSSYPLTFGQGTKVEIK", "Condition not met"),
]
